TEST TARGET: hAR (Homo sapiens, UniProt P10275)
Construct: made in house; host or cells: baculovirus/Sf9 insect cells
Sequence (P10275 whole entry): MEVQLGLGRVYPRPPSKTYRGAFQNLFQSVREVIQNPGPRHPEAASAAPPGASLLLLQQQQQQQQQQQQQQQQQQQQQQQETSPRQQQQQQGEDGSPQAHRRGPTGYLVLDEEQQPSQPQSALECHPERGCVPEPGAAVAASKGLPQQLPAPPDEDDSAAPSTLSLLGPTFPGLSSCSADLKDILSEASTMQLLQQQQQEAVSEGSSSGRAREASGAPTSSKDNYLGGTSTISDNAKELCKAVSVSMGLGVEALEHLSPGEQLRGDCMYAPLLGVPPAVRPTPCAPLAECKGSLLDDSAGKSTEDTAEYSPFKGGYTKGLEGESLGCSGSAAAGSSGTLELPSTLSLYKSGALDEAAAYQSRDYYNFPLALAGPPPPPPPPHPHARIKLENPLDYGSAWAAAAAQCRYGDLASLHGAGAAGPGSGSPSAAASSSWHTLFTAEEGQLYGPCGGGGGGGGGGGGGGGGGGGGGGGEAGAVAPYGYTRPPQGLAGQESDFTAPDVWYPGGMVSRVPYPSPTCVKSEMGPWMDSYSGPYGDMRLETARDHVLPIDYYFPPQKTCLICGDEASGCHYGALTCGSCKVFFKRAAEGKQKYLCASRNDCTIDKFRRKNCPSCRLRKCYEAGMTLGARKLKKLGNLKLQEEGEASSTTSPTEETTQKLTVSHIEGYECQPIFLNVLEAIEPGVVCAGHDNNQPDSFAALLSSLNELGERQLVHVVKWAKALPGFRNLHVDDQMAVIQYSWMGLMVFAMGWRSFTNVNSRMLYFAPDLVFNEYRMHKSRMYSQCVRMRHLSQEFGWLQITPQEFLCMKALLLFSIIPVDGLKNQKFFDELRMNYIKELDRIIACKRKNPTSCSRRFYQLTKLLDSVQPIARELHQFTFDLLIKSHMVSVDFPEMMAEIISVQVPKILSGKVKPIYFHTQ
ASSAY PROCEDURE: Competitive binding analysis on baculovirus/Sf9 generated hAR extracts with 3H-DHT tracer
EXPERIMENTAL CONDITIONS: AR Binding IC50, hAR extract, 1 nM 3H-DHT, one hour at 4° C.; mean of multiple tests
// IC50 lookup, one value per entry

> print(dat)
                  compound  experimental.result
1  N#Cc1ccc(OC2CCCC2)cc1Cl                49 nM

# assay system hAR (Homo sapiens, UniProt P10275): give IC50 of N#Cc1ccc(OC2CCCCC2c2ccccc2)cc1Cl (stereo not drawn) 89 nM

Tell me IC50 of CC1CCCCC1Oc1ccc(C#N)c(Cl)c1 (stereo not drawn) when tested on hAR (Homo sapiens, UniProt P10275). 49 nM
